target entity: acetylcholine receptor
assay notes: SPR, AchR on chip, peptide 10 uM
Recorded Binding affinity (RU) by entry

>  <binder>
RWYYR [5mer-205]

>  <Binding affinity (RU)>
75

$$$$
>  <binder>
KRYCR [5mer-312]

>  <Binding affinity (RU)>
81

$$$$
>  <binder>
KWVRR [5mer-216]

>  <Binding affinity (RU)>
56

$$$$
>  <binder>
RQFYR [5mer-540]

>  <Binding affinity (RU)>
74

$$$$
>  <binder>
RRFCR [5mer-329]

>  <Binding affinity (RU)>
79

$$$$
>  <binder>
KLQRK [5mer-501]

>  <Binding affinity (RU)>
78

$$$$
>  <binder>
KQVRK [5mer-223]

>  <Binding affinity (RU)>
61

$$$$
>  <binder>
RSVRK [5mer-304]

>  <Binding affinity (RU)>
76

$$$$
